Tested on: U-251
Experiment: NCI tumour cell line growth inhibition, 48 h
Calls of active or inactive are those of the source. No stated cut-off is given here; in the data, active = GI50 up to about 1.1 µM and inactive = higher.
The reply should name one outcome from active, inactive

Examples with answers:
[
  {
    "MOLECULE": "Nc1ccc2c(c1)S(=O)(=O)c1cc(O)ccc1O2",
    "TARGET OR SYSTEM": "U-251",
    "LABEL": "inactive"
  },
  {
    "MOLECULE": "Clc1cc(-c2ccccc2)nc(Nc2nc3ccccc3[nH]2)n1",
    "TARGET OR SYSTEM": "U-251",
    "LABEL": "inactive"
  },
  {
    "MOLECULE": "CC(C)(C)C(=O)/C=C/c1ccc(Oc2ccccc2)cc1",
    "TARGET OR SYSTEM": "U-251",
    "LABEL": "inactive"
  }
]

Hello, I am checking results. What call was entered for CCOC(=O)/C=C(\C(=O)OCC)n1ccc(=O)n(Cc2cn(CCCCOC(C)=O)nn2)c1=O ?
inactive

Outcome logged for COc1ccc(C2(CC(C)O)SCCCS2)cc1 (stereo not drawn) in this assay:
inactive

For this molecule, state the assay outcome: C#CCn1c(=O)ccn(/C(=C/C(=O)OCC)C(=O)OCC)c1=O
inactive
